Values were extracted from the supplement of paper PMC10567573.

The entries below are paired with their reported protein stability index.
B1: ZNF649 (parent)
chain: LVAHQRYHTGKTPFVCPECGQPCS

# Variants of: B1
# measurement-description: protein stability index of a GFP-peptide fusion (GPS, HEK-293T) (PSI 1-6); higher = more stable;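 note: lentivirally expressed fusions sorted by FACS into six bins by GFP to DsRed ratio, PSI derived from sequencing read proportions per bin multiplied by bin number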
# conditions-used: c terminus: a fixed tail appended
assay-metric: protein stability index

[
  {
    "residues": "LVAHLRYHTGKTPFVCPECGQPCS [Q5L]",
    "reported": 2.05
  },
  {
    "residues": "LVAHARYHTGKTPFVCPECGQPCS [Q5A]",
    "reported": 3.22
  },
  {
    "residues": "LVAHQHYHTGKTPFVCPECGQPCS [R6H]",
    "reported": 4.1
  },
  {
    "residues": "LVWHQRYHTGKTPFVCPECGQPCS [A3W]",
    "reported": 2.57
  },
  {
    "residues": "LVAHQRYHTGKTPFVCPENGQPCS [C19N]",
    "reported": 2.92
  },
  {
    "residues": "LVAHQRYHTGKTPFVCPECGQPCM [S24M]",
    "reported": 2.67
  },
  {
    "residues": "LVAHQRWHTGKTPFVCPECGQPCS [Y7W]",
    "reported": 2.38
  },
  {
    "residues": "LVAHQRYHTGKTTFVCPECGQPCS [P13T]",
    "reported": 4.15
  },
  {
    "residues": "LVAYQRYHTGKTPFVCPECGQPCS [H4Y]",
    "reported": 2.64
  },
  {
    "residues": "LVAHQRYHTGKTPFVCPEGGQPCS [C19G]",
    "reported": 3.05
  },
  {
    "residues": "VVAHQRYHTGKTPFVCPECGQPCS [L1V]",
    "reported": 3.35
  },
  {
    "residues": "LVAHQRYHTGKTPFVCPECGQPNS [C23N]",
    "reported": 3.06
  },
  {
    "residues": "MVAHQRYHTGKTPFVCPECGQPCS [L1M]",
    "reported": 3.25
  },
  {
    "residues": "LVAHQRYHTGKTPFVCPEDGQPCS [C19D]",
    "reported": 3.63
  },
  {
    "residues": "LVAHQREHTGKTPFVCPECGQPCS [Y7E]",
    "reported": 4.45
  },
  {
    "residues": "LVAHQRYHTGKTPFVCPECGQPDS [C23D]",
    "reported": 3.72
  },
  {
    "residues": "LVAHQRHHTGKTPFVCPECGQPCS [Y7H]",
    "reported": 3.56
  },
  {
    "residues": "LVAHQRYHTGKTPFVCPSCGQPCS [E18S]",
    "reported": 3.11
  },
  {
    "residues": "AVAHQRYHTGKTPFVCPECGQPCS [L1A]",
    "reported": 3.76
  },
  {
    "residues": "LVAHQRYHTGKTPFVCPECGQPCT [S24T]",
    "reported": 3.36
  },
  {
    "residues": "LVAHQRYHTGKHPFVCPECGQPCS [T12H]",
    "reported": 2.56
  },
  {
    "residues": "LVAHQRYHTGKTPFVCPECLQPCS [G20L]",
    "reported": 2.59
  },
  {
    "residues": "LVAHQRYHSGKTPFVCPECGQPCS [T9S]",
    "reported": 3.1
  },
  {
    "residues": "LCAHQRYHTGKTPFVCPECGQPCS [V2C]",
    "reported": 4.4
  },
  {
    "residues": "LVAHQRYHFGKTPFVCPECGQPCS [T9F]",
    "reported": 3.62
  },
  {
    "residues": "LVAHQRYHTGHTPFVCPECGQPCS [K11H]",
    "reported": 3.35
  },
  {
    "residues": "LVAHQRYVTGKTPFVCPECGQPCS [H8V]",
    "reported": 3.77
  },
  {
    "residues": "LVAHQRYTTGKTPFVCPECGQPCS [H8T]",
    "reported": 3.26
  },
  {
    "residues": "LVAHQRYHPGKTPFVCPECGQPCS [T9P]",
    "reported": 2.88
  },
  {
    "residues": "LVAHQRYHTGITPFVCPECGQPCS [K11I]",
    "reported": 3.31
  },
  {
    "residues": "LVAHQRYHTGKTPFVCPECGQPYS [C23Y]",
    "reported": 2.31
  },
  {
    "residues": "KVAHQRYHTGKTPFVCPECGQPCS [L1K]",
    "reported": 3.65
  },
  {
    "residues": "LVAHQRYHTGKTPFVCQECGQPCS [P17Q]",
    "reported": 3.51
  },
  {
    "residues": "LVAHQRYHTGKTPFVCPECGQPCR [S24R]",
    "reported": 2.68
  },
  {
    "residues": "LVAHQRYHTGKEPFVCPECGQPCS [T12E]",
    "reported": 3.86
  },
  {
    "residues": "LVAHQRYHTGKTPFVCPECGQACS [P22A]",
    "reported": 3.58
  },
  {
    "residues": "LVAHQRYHTGKTPFVCPFCGQPCS [E18F]",
    "reported": 2.56
  },
  {
    "residues": "LTAHQRYHTGKTPFVCPECGQPCS [V2T]",
    "reported": 4.06
  },
  {
    "residues": "LVAHQRYHTGKTPFVCPEVGQPCS [C19V]",
    "reported": 2.42
  },
  {
    "residues": "LVAEQRYHTGKTPFVCPECGQPCS [H4E]",
    "reported": 3.31
  },
  {
    "residues": "LVAHQRYHTVKTPFVCPECGQPCS [G10V]",
    "reported": 2.85
  },
  {
    "residues": "LVAHQRYHTGKTPFVCCECGQPCS [P17C]",
    "reported": 2.98
  },
  {
    "residues": "LVAHQRYHTGKTPPVCPECGQPCS [F14P]",
    "reported": 3.58
  },
  {
    "residues": "LVAHQRYHTFKTPFVCPECGQPCS [G10F]",
    "reported": 3.44
  },
  {
    "residues": "LVAHQRYHTGKTPFVCPECGQPQS [C23Q]",
    "reported": 2.73
  },
  {
    "residues": "LVAHQRYHTGKTDFVCPECGQPCS [P13D]",
    "reported": 3.46
  }
]
